Molecular target: Neu5Ac(a2-6)Gal(b1-4)GlcNAc(b1-6)GalNAc
Experiment: glycan array binding signal (z-score within array); higher = stronger binding
Conditions: glycan notation: IUPAC condensed, linker removed
About 410 targets per protein were measured; listed, in parts, are those with the strongest signals and a random draw of the rest.
Kind request: treat -0.2 as inclusive, so glycan array binding signal (z-score) at -0.2 or higher is Y, anything lower is N.

[[record]]
binder = "FGF1 (Homo sapiens), P05230 (protein) MAEGEITTFTALTEKFNLPPGNYKKPKLLYSNGGHFLRILPDGTVDGTRDRSDQHIQLQLSAESVGEVYIKSTETGQYLAMTDGLLYGSQTPNEECLFLERLEENHYNTYISKHAEKNWFVGLKKNGSCKRGPRTHYGQAILFLPLPASSED"
class_assignment = "Y"

[[record]]
binder = "DC-ASGPR Long (Homo sapiens) (protein) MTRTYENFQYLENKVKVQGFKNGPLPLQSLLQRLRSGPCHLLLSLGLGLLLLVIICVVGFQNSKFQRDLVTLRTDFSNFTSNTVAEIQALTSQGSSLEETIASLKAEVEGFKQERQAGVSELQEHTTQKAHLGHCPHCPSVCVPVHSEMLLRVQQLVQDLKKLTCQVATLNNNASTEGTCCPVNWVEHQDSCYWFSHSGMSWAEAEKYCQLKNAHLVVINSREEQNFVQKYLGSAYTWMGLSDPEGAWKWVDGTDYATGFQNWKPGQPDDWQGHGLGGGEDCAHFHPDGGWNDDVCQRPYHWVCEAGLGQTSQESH"
class_assignment = "N"

[[record]]
binder = "CAA (Caragana arborescens) (protein) VAVEFDTFDNPDWDPRTKHIGIDVNSIRSNKTTQWGFWNRQVADVDISYEASSKTLNVSLYYPGESYIVTDVVDLKDILPEWVRIGF"
class_assignment = "N"

[[record]]
binder = "CC1G-11630 (Coprinopsis cinerea), A8P462 (protein) MTTEAKIKLKAVVYWELVFDYDNSSNTGEITQSYTVKISQTSTRSTFASEVSTTTIDTLTKNNQEVDVGASYGAISANVSASWEHSEEVNNMLEKTTQTSTEDTYTVETEETRSYTIGPGGMLSLFQKHFSGPGMHVAFDVFTTDLELAKERTEIDIDVDVEAIRFVREIRVVYTDIMSEAPGDHVREINGKNPDINYGFNGKFVWLVPEQTRKTAQALTNVEFVSQAESDDRYWDLAAGAGGSNRYLIPVYDTNNKDKIYELALWRSDSYITHDKVKAAGWSGTTGDINSGRGGTYLNLVWKTRHAY"
class_assignment = "Y"

